Reference source: the NIST ThermoML archive (doi:10.1021/acs.jced.5b00980)

Experiment: activity coefficient (dimensionless); of the first substance listed, at infinite dilution; xn = mol fraction of the nth substance listed
Conditions: 368.15 K; 100 kPa; Liquid; Chromatography; x1 = 0
Reported activity coefficient by item:
assay-endpoint: activity coefficient

compound	reported-measurement
CCC(C)(C)OC [2-methoxy-2-methylbutane] + CCCC[P+](CC)(CCCC)CCCC.CCOP(=O)([O-])OCC	2.01
C=CCCCC [hex-1-ene] + CCCC[P+](CC)(CCCC)CCCC.CCOP(=O)([O-])OCC	2.4
Cc1ccccc1 [toluene] + CCCC[P+](CC)(CCCC)CCCC.CCOP(=O)([O-])OCC	1.15
C1CCCCC1 [cyclohexane] + CCCC[P+](CC)(CCCC)CCCC.CCOP(=O)([O-])OCC	2.01
CCC(C)CC [3-methylpentane] + CCCC[P+](CC)(CCCC)CCCC.CCOP(=O)([O-])OCC	2.98
CC1CCCCC1 [methylcyclohexane] + CCCC[P+](CC)(CCCC)CCCC.CCOP(=O)([O-])OCC	2.44
CC#N [acetonitrile] + CCCC[P+](CC)(CCCC)CCCC.CCOP(=O)([O-])OCC	0.469
c1ccncc1 [pyridine] + CCCC[P+](CC)(CCCC)CCCC.CCOP(=O)([O-])OCC	0.55
C#CCCCC [1-hexyne] + CCCC[P+](CC)(CCCC)CCCC.CCOP(=O)([O-])OCC	1.02
CCCC(C)=O [pentan-2-one] + CCCC[P+](CC)(CCCC)CCCC.CCOP(=O)([O-])OCC	1.01
CCOC(C)(C)C [2-ethoxy-2-methylpropane] + CCCC[P+](CC)(CCCC)CCCC.CCOP(=O)([O-])OCC	2.47
CCCCCC [hexane] + CCCC[P+](CC)(CCCC)CCCC.CCOP(=O)([O-])OCC	3.15

---

Test: activity coefficient (dimensionless); of the first substance listed, at infinite dilution; xn = mol fraction of the nth substance listed
Details: 348.15 K; 100 kPa; Liquid; Chromatography; x1 = 0

compound	activity coefficient
C1CCOC1 [tetrahydrofuran] + CCCC[P+](CC)(CCCC)CCCC.CCOP(=O)([O-])OCC	0.919
CCO [ethanol] + CCCC[P+](CC)(CCCC)CCCC.CCOP(=O)([O-])OCC	0.038
c1ccccc1 [benzene] + CCCC[P+](CC)(CCCC)CCCC.CCOP(=O)([O-])OCC	0.855
CCCCCCC [heptane] + CCCC[P+](CC)(CCCC)CCCC.CCOP(=O)([O-])OCC	3.87
CC#N [acetonitrile] + CCCC[P+](CC)(CCCC)CCCC.CCOP(=O)([O-])OCC	0.467
C=Cc1ccccc1 [styrene] + CCCC[P+](CC)(CCCC)CCCC.CCOP(=O)([O-])OCC	0.98
Cc1ccccc1 [toluene] + CCCC[P+](CC)(CCCC)CCCC.CCOP(=O)([O-])OCC	1.18
C=CCCCC [hex-1-ene] + CCCC[P+](CC)(CCCC)CCCC.CCOP(=O)([O-])OCC	2.49
Cc1ccccc1C [1,2-dimethylbenzene] + CCCC[P+](CC)(CCCC)CCCC.CCOP(=O)([O-])OCC	1.5
CCc1ccccc1 [ethylbenzene] + CCCC[P+](CC)(CCCC)CCCC.CCOP(=O)([O-])OCC	1.49
Cc1ccc(C)cc1 [1,4-dimethylbenzene] + CCCC[P+](CC)(CCCC)CCCC.CCOP(=O)([O-])OCC	1.59
